src = the nanobody polyreactivity screen of Harvey et al. (2022)

- Assay method text: yeast display, Sf9 membrane polyspecificity reagent, FACS + sequencing; frameworks hold sequencing errors
Attribute measured: polyreactivity (PSR sort gate)

Some sequences with recorded polyreactivity (PSR sort gate):
{"columns": ["Residue codes", "Attribute measured", "Assay value"],
 "data": [
  ["QVQLLESGGGLVQAGGSLRLRCAASGSIFISYAMGWYRQAPGKERELVAAISIRGTRTYYADSVKGRFTISRDNAKNTVYLHMNCLKPEDTAVYYCAADASYTEGMDYWGQGTQGTVSS", "polyreactivity (PSR sort gate)", "high polyreactivity"],
  ["QVQLVESGGGLVQAGGSLRLSCAASGRISNDYAMGWYRQAPGKVRELVATITFSGGDTYYADSVKGRFTISRDNAKNTVYLQMNSLKPEDTSVYYCAASKWRSYSGGWWRLLFDYWGQGTQVTVSS", "polyreactivity (PSR sort gate)", "low polyreactivity"],
  ["QVQLVESGGGLVQAGGSLRLISAASGRTFWTNAMGWYRQAPGKEREFVAAISWRGASTFYADSVKGRFTISRDNAKNTVYLQMNSLKPEDTAVYYCAAQSRTRSFYGKYDSWGQGTQVTVSS", "polyreactivity (PSR sort gate)", "low polyreactivity"],
  ["QVQLVESGGGLVQAGGSLRLSCAASGIIFYDYAMGWSRQAPGKERELVATITRGGGTKYADSVKGRFTISRDNAKNTVYLQMNSLKPEDTAVYYCAADSHGVYEGDYWGQGTQVTVSS", "polyreactivity (PSR sort gate)", "low polyreactivity"],
  ["QVQLVESGGGLVQAGGSLRLSCAATGFIFDSYAMGWYRQAPGKERELVAAISWSGGRTYYADSVKGRFTISRDNAKNTVYLQMNSLKPEDTAVYYCNVRTKLSTSYDYWGQGTQVTVSS", "polyreactivity (PSR sort gate)", "high polyreactivity"]
]}

Note down polyreactivity (PSR sort gate) recorded for QVQLVESGGGLVQAGGSLRLSCAASGRIFKYYAMGWYRPAPGKERELVAAISRSSGRTYYADSVKGRFTISRDNAKNTVYFQMNSLKPEDTAVYYCNALPSTVYLTYDYWGQGTQVTVSS
high polyreactivity

Note down polyreactivity (PSR sort gate) recorded for QVQLVESGGGLVQAGGSLRLSCAASGFTFGRKALGWYRQAPGKERELVAAISSSEHFYVRRLLKGRFTISRENAKNTVYLQMNSLKPEDTAVYYCATDNSGEVEYWGQGTQVTVSS
high polyreactivity

Note down polyreactivity (PSR sort gate) recorded for QDQLVDSGGGLVQAGGSLRLSCAASGSTFGPYPMGWYRQAPGKERELVATISSGGSTYYADSVKGRFTISRDNAKNTVYLQMNSLKPEDTSVYDCAARYWSIYDYWGQGTQVTVSS
low polyreactivity

Note down polyreactivity (PSR sort gate) recorded for QVQLVESGGGLVQAGGSLRLICAASGSTFNDYVMGWYRQAPGKERELVAAISRSGGSTYYADSVKGRITISRDNAKNTVYLQMNSLKPEDTAVYYCAAASPGPWRYDYWGQGTQVTVSS
high polyreactivity

====

- Assay method text: yeast display, Sf9 membrane polyspecificity reagent, FACS + sequencing; frameworks hold sequencing errors

{"columns": ["Residue codes", "polyreactivity (PSR sort gate)"],
 "data": [
  ["QVQLVESGGGLVQAGGSLRLSCAASGFTFVKYAMGWYRQAPGKVRELVASISSGGSTYYADSVKGRFTISRDNAKNTVYLQMNSLKPEDTAVYYCNKSPGYGRYSRRYDSWGQGTQVTVSS", "high polyreactivity"],
  ["QVQLVESGGGLVQAGGSLRLICAASGRTFFYYAMGWYRQAPGKEREFVAAISWSAGSTYYADSVKGRFTISRDNAKITVSLQMNSLKPKDTGVYYCAAARPSGGGFDYWGQGTQVTVSS", "high polyreactivity"]
]}

====

- Assay method text: yeast display, Sf9 membrane polyspecificity reagent, FACS + sequencing; frameworks hold sequencing errors
Attribute measured: polyreactivity (PSR sort gate)

Some sequences with recorded polyreactivity (PSR sort gate):
{"columns": ["Residue codes", "Attribute measured", "Assay value"],
 "data": [
  ["QVQLVESGGGLVQAGGSLRLSCAASGSIFGYYAMGWYRQAPGKERELVAAISYGGGRTYYADSVKGRFTISRDNAKNTVYLQMNSLKPEDTAVYYCAADVQSRYVGEGDYWGQGTQVTVSS", "polyreactivity (PSR sort gate)", "high polyreactivity"],
  ["QVQLVESGGGLVQAGGSLRLSCAASGSTVYVYTMGGYRQAPGKERELVAANSLSGDNTYYADSVKGRFTISRDNAKNTVYLQKNSLKPEATAVYYCNADIIGFPADYLYDYWGQGTQVTVSS", "polyreactivity (PSR sort gate)", "low polyreactivity"],
  ["QVQLVESGGGLVQAGGSLRLSCAASGRIFRHYAMGWYRQAPGKERELFAAIDWDGDTTYYADSVKGRFTISRDNAKNTVYLQMNSLKPEDNAVSYCAAEFYSLGKAIYEYWGQGTQVTVSS", "polyreactivity (PSR sort gate)", "high polyreactivity"],
  ["QVQLVESGGGLVQAGRSLRLNCAASGSIFYYYAMGWYRPAPGKERELVAAISRNGGSTSYADSVKGRFTISRDNAKNTVYLQMNSLKPEDTAVYYCNTYGGYKYDYWGQGTQVTVSS", "polyreactivity (PSR sort gate)", "low polyreactivity"]
]}

Now for another entry.
Note down polyreactivity (PSR sort gate) recorded for QVQLVESGGGLVQAGGSLRLSCAASGSIFPGNAMGWYRQEPRKERELVAAITKGDGSTNYADSVKGRFTISRDNAKNTVYLQLNSLITEDTAVYYCADRSRVFGYQGYDYWGQGTQVTVSS
low polyreactivity

====

- Assay method text: yeast display, Sf9 membrane polyspecificity reagent, FACS + sequencing; frameworks hold sequencing errors
Attribute measured: polyreactivity (PSR sort gate)

Some sequences with recorded polyreactivity (PSR sort gate):
{"columns": ["Residue codes", "Attribute measured", "Assay value"],
 "data": [
  ["QVQLVESGGGLVPAGGSLRLSCAASGRIFPQYAMGWYRQAPGKERELVAAISYRGGSTYYADSVKGRFTISRDNAKNTVYSQMNSLKPEDTAVYYCAAKRYNYWGQGTQVTVST", "polyreactivity (PSR sort gate)", "high polyreactivity"],
  ["QVQLVESGGGLVQAGGSLRLSCAASGFIFRLYDMVRYRQAPGKERELVAAISSGGRTNYADSVKGRFTISSDNPKNTVYLQMNSLKPEDTAVYYCAARSIFGYRSYGYWGQGTQVTVSS", "polyreactivity (PSR sort gate)", "high polyreactivity"],
  ["QVQLVESGGGLVQAGGSLRLSCAATGRNFRYNAIGWYRQATGKERELVATISRGGGSTYYADSVKGRFTISRDNAQNTVYLQMNSLKPEDTAVYYCATRYYQDIVGYSRYDYWGQGTQVTVSS", "polyreactivity (PSR sort gate)", "high polyreactivity"],
  ["QVQLVESGGGLVQAGGSLRLSCAASGRTFRVYAMGWYRPAPGKERELVATITSSGGSTYYADSVKGRFTISRDNAKNTVYLQMNSLKPEDTGVYYCNVSVYYNYDSSYYYWGQGTQVTVSS", "polyreactivity (PSR sort gate)", "low polyreactivity"],
  ["QVQLVESGGGLVQAGGSLRLSCAASGRTFQTYAMGWYRQAPGKERELVASINWSDGSTYYADSVKGRFTISRDNAKNTVYLQMNSLKPEDTAVYYCAADSSAWLYDYWGQGTQVTVSS", "polyreactivity (PSR sort gate)", "low polyreactivity"],
  ["QVQLGESGGGLVQAGGSLRLSCAASGRNFSTYTMGWYRQATWKERELVASISWSGVRTRYADSVKGRFTISRDNAKNTVYLQMNSLKPEDTAVYYCAAVVPYYYRSPSNHMGYWGQGTQVTVSS", "polyreactivity (PSR sort gate)", "high polyreactivity"],
  ["QGQLVESGGGLVQAGGSLRLSCAASGFTLLPYAMGWYRQAPGKERELVAAISRRGVSTYYADSVKGRFTISRDNAKNTVYLQMISLKPEDTAVYYCAAKYRKWPMDYWGQGTQVTVSS", "polyreactivity (PSR sort gate)", "high polyreactivity"],
  ["QVQLVESVGGLVQAGGSLRLSCAASGFIFSWYAMGWYRQAPGKERELVAAINSGGRTSYADSVKGRFTISRDNAKNTVYLQMNSLKPEDTAVYYCAAPVYYYNRARYSYDYWGQGTQVTVSS", "polyreactivity (PSR sort gate)", "high polyreactivity"]
]}

Now for another entry.
Note down polyreactivity (PSR sort gate) recorded for QVQLVESCGGLVQAGGSLRLSCAASGSTFRYNAMGWYRQAPGKERELVAAISWSGGSTYYADSVKGRFTISRDNAKNTVYLQMNSLKPEDTAVYYCAKVYFWGALSPDKFDEDYWGQGTQVTVSS
low polyreactivity

====

- Assay method text: yeast display, Sf9 membrane polyspecificity reagent, FACS + sequencing; frameworks hold sequencing errors
Attribute measured: polyreactivity (PSR sort gate)

{"columns": ["Residue codes", "Assay value"],
 "data": [
  ["QVQLVESGGGLVQAGGSLRLSCAASGSIFNINAMGWCRQAPGKDRELVATITSGGTTSYADSVKGRFTISRDNAKNTVYLQMNSLKPEDTAVYYCNAEIYPIVKAGRQHPRRYDYWGQGTQVTVSS", "low polyreactivity"],
  ["QVQLVESGGGLVQAGGSLRLSCAASGFIFLPYAKGWYRQAPGKERELVAAITRGGRTYYADSVKGRFTISRDNAKNTVYLQMNSLKPEDTAVYYCAATTYLVWGYNYWGQGTQVTVSS", "low polyreactivity"],
  ["QVQLVESGGGLVQAGGSLRLSCAASGLIFYSNAMGWYRQAPGKERELVAAISFNSGSTYYADSVKGRFTISRDNAKNTVYLQMNSLKPEDTAVYYCAKKRRFVVLSVQGDYWGQGTQVTVSS", "low polyreactivity"]
]}
